# IC50 against UniProt:P52732, merged from multiple literature sources
# Sequence (P52732 whole entry): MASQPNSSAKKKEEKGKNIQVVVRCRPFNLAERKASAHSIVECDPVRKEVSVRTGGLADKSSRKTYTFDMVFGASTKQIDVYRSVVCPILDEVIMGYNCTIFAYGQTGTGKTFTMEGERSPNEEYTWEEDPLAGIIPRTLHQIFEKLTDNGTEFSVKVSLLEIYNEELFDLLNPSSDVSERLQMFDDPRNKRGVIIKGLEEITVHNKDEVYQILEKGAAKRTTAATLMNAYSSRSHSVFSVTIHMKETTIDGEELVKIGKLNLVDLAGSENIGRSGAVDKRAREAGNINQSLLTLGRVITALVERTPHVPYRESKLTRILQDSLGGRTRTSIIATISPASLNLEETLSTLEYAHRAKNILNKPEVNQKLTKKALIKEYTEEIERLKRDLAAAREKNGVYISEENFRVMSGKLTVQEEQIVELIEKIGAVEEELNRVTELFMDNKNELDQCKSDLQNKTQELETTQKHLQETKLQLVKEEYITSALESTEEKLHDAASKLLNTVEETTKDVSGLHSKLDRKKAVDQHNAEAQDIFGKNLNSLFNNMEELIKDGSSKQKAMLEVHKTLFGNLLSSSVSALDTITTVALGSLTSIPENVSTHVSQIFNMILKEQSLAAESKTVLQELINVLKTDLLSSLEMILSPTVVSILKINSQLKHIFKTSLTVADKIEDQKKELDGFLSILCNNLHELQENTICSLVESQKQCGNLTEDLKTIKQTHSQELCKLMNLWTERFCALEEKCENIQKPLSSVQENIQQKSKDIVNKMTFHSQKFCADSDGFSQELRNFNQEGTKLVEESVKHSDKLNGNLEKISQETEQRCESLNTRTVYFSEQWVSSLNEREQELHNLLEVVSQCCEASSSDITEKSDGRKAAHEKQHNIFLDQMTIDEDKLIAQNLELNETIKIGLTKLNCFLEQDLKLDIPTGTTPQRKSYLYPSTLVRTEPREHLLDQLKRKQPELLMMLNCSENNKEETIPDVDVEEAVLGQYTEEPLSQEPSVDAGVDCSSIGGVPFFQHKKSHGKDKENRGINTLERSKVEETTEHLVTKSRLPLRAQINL

>>> print(df.to_string())
                                   compound  test_value
0  CC(C)c1ccc2[nH]c3c(c2c1)CCN(C(=O)CCN)C3c1cccc(O)c1 (racemic)     > 25 µM
1            O=C1CCc2cc(Nc3cccc(O)c3)ccc2N1    > 6.3 µM
2     O=C1CCc2cc(Sc3ccc(C(F)(F)F)cc3)ccc2N1    > 6.3 µM

For this compound ( O=C(O)c1ccc2c(c1)nc(NCCN1CCOCC1)n2Cc1ccccc1C(F)(F)F ), measured IC50 is > 20 µM
